- TARGET SYSTEM: PI3Kδ (Homo sapiens, UniProt O00329)
- Construct: purchased Millipore 14-604
- Sequence (O00329 whole entry): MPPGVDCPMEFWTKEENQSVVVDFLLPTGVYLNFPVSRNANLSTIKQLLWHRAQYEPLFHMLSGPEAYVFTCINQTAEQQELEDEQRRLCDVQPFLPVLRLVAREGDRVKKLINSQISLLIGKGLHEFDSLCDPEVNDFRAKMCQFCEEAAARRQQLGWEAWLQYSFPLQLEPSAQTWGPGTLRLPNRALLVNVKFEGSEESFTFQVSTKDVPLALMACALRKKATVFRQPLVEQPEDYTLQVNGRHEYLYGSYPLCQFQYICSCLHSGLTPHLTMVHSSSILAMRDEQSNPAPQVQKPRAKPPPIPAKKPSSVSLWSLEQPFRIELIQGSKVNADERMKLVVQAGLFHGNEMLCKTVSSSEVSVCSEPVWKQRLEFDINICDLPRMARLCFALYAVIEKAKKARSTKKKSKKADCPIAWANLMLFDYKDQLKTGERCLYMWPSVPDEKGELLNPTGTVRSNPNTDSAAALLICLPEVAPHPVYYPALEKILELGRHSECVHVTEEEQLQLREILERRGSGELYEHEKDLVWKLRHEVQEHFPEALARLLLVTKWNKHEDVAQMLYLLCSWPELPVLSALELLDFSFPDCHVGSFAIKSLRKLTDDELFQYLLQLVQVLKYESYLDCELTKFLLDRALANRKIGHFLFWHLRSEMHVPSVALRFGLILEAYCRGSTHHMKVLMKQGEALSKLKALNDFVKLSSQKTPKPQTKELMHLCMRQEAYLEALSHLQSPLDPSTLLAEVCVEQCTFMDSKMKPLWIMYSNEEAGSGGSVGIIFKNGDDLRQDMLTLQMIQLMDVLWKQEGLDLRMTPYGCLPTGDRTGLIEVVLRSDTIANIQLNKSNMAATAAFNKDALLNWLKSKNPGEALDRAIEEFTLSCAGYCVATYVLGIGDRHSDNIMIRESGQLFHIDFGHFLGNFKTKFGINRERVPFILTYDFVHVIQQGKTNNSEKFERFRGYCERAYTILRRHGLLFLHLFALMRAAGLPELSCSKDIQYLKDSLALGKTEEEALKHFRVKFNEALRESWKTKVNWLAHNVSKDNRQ
- Sequence (P27986 whole entry partner): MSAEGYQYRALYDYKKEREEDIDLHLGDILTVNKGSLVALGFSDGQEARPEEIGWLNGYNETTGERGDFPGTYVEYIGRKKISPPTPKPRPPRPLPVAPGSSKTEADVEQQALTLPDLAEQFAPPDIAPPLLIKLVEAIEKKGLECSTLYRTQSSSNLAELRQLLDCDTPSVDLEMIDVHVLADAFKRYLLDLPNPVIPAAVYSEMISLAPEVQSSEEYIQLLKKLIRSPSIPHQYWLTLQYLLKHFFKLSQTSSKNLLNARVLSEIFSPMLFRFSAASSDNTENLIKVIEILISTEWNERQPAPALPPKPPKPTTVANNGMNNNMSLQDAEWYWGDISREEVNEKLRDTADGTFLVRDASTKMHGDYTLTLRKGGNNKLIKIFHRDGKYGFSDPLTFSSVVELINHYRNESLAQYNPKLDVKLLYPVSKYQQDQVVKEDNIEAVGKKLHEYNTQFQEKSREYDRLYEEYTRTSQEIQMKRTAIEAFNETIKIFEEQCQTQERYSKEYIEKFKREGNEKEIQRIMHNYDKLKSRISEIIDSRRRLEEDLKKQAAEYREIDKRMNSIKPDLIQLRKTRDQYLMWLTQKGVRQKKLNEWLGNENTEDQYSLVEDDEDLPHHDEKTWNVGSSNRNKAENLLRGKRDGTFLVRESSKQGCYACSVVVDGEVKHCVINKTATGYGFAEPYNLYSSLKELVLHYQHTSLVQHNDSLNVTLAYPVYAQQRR
- ASSAY PROCEDURE: Inhibitory activity to PI3K δ, PI 3-Kinase (human) HTRF Assay kit
- Type: biochemical
- MEASUREMENT SETUP: 10 μM (Table 7); read-out: Inhibition rate % to PI3Kδ
ENDPOINT LABEL: inhibition at 10 µM (%)

(1) c1ccc(-c2ccnc3ccc(Nc4nc(NCC5CCCC5)c5nc[nH]c5n4)cc23)cc1
(2) COC(=O)c1cccc(-c2ccnc3ccc(Nc4nc(NC5CC5)c5nc[nH]c5n4)cc23)c1
Ask | // which entry reports the smaller inhibition at 10 µM, 1 or 2 ? Please indicate the selected item by its label.
Reply | 2

(I) Fc1ccc(-c2ccnc3ccc(Nc4nc(NC5CCC5)c5nc[nH]c5n4)cc23)cc1
(II) COCCCNc1nc(Nc2ccc3nccc(-c4ccccc4)c3c2)nc2[nH]cnc12
Ask | Which numeric inhibition at 10 µM is bigger, that of I or that of II ? Please indicate the selected item by its label.
Reply | I
